B1: LINE1-full (parent)
chain: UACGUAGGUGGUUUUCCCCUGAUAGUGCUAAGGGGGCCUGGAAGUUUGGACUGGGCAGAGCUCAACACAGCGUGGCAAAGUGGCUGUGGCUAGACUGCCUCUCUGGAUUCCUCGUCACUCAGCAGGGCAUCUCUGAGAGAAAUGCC

# Variants of: B1
# procedure summary: self-cleavage, relative activity (ratio to wild type); higher = more cleavage; in vitro, sequencing; the parent is a self-cleaving ribozyme
Mark criterion met for reported self-cleavage of 1 or greater; mark criterion not met for anything smaller.

ordered residues	qualitative label
UACGUAGGUGAUUUUCCCCUGAUAGUGCUAAGGGGGCCUGGAAGUUUGGACUGGGCAGAGCGCAACACAGCGUGGCAAAGUGGCUGUGGCUAGACUGCCUCUCUGGAUUCCUCGUCACUCAGCAGGGCAUCUCUGAGAGAAAUGCC [G11A U62G]	criterion not met
UACGUAGGUGGUUUUCCCCUGAUAGUGCUAAGGGGGCCUGGAAGUUUGGACUGGGCAGAGCUCAACACAGCGUGGCAAUGUGGCUGUGGCUAGACUGCCUCUCUGGAUUCCUCGUCACUCAGCAGGGCAUCUCUGUGAGAAAUGCC [A79U A136U]	criterion met
UACGUAGGCGGUUUUCCCCUGAUAGUGCUAAGGGGGCCUGGAAGUUUGGACUGGGCAGAGCUCAACACAGCGUGGCAAAGUGGCUGUGGCUAGACUGCCUCCCUGGAUUCCUCGUCACUCAGCAGGGCAUCUCUGAGAGAAAUGCC [U9C U102C]	criterion met
UACGUAGGUGGUUUUCCCCUGAUAGUGCUAAGGGGGCCUGGCAGUUUGGACUGGGCAGAGCUCAACACAGCGUGGCAAAGUGGCUGUGGCUAGACUGCCUCCCUGGAUUCCUCGUCACUCAGCAGGGCAUCUCUGAGAGAAAUGCC [A42C U102C]	criterion met
UACGUAGGUGGUUUUCCCCUGAUAGUGCUAAGGGGGCCUGGAAGUUUGGACUGGGCAGAGCUCAACACAGCGUGGCAAAGUGGCUGUGGCUAGACUGCCUCUCUGGGUUCCUCGUAACUCAGCAGGGCAUCUCUGAGAGAAAUGCC [A107G C116A]	criterion met
UACGUAGGUGGUUUUCCCCUGAUAGUGCUAAGGGGGCCAGGAAGUUUGGACUGGGCAGAGCUCAACACAGCGUGGCAAAGUGGCUGUGGCUAGACUGCCUCUCUGGAUUCCUCGUCACUCAGCAGGGCAUCUCUGAGAGAAAAGCC [U39A U143A]	criterion met
UACGUAGGAGGUUUUCCCCUGAUAGUGCUAAGGGGGCCUGGAAGUUUGGACUGGGCAGAGCUCAACACAGCGGGGCAAAGUGGCUGUGGCUAGACUGCCUCUCUGGAUUCCUCGUCACUCAGCAGGGCAUCUCUGAGAGAAAUGCC [U9A U73G]	criterion met
UACAUAGGUGGUUUUCCCCUGAUAGUGCUAAGGGGGCCUGGAAGUUUGGACUGGGCAGAGCUCAACACAGCGUGGCAAAGUGGCAGUGGCUAGACUGCCUCUCUGGAUUCCUCGUCACUCAGCAGGGCAUCUCUGAGAGAAAUGCC [G4A U85A]	criterion not met
UACGUAGGUGGUUUUCCCCUGAUAGUGCUUAGGGGGCCUGGAUGUUUGGACUGGGCAGAGCUCAACACAGCGUGGCAAAGUGGCUGUGGCUAGACUGCCUCUCUGGAUUCCUCGUCACUCAGCAGGGCAUCUCUGAGAGAAAUGCC [A30U A43U]	criterion not met
UACGUAGGUGGUUUUCCCCUGAUAGUGCUAAGGGGGCCUGGAAGUUUGGACUGGGCAGAGCUCAACACAGCGUGGCAAAGUGGCUGUGGCUAGACUGCCUCUCUGGAUUCCUCUUCACUCAGCAGGGCAUCUCUGAGAGAACUGCC [G114U A142C]	criterion not met
UACGUAGGGGGUUUUCCCCUGAUAGUGCUAAGGGGGCCUGGAGGUUUGGACUGGGCAGAGCUCAACACAGCGUGGCAAAGUGGCUGUGGCUAGACUGCCUCUCUGGAUUCCUCGUCACUCAGCAGGGCAUCUCUGAGAGAAAUGCC [U9G A43G]	criterion not met
UACGUAGGUGGAUUUCCCCUGAUAGUGCUAAGGGGGCCUGGAAGUUUGGACUGGGCAGAGCUCAACACAGCGUGGCAAAGUGGCUGUGGCUAGACUGCCUCUCUGGAUUCCUCGUCACUCAGCAGGACAUCUCUGAGAGAAAUGCC [U12A G127A]	criterion not met
UACGUAGGUGGUUUUCCCCUGAUAGUGCUAAGGGGGCCUGGAAGUUUGGACUGGGCAGAGCUCAACACAGCGUGGCAAGGUGGCUGUGGCUAGACUGCCUCUCUGGAUUCCUCGUCACUCAGCAGGGCAUCUCUGAGAGAAAUGCU [A79G C146U]	criterion met
UACGAAGGUGGUUUUCCCCUGAUAGUGCUAAGGGGGCCUGGAAGUUUGGACUGGGCAGAGCUCAACACAGCGUGGCAAAGUGGCUGUGGCUAGACUGUCUCUCUGGAUUCCUCGUCACUCAGCAGGGCAUCUCUGAGAGAAAUGCC [U5A C98U]	criterion not met
UACGUAGGUGGUUUUCCCCCGAUAGUGCUAAGGGGGCCUGGAAGUUUGGACUGGGCAGAGCUCAACUCAGCGUGGCAAAGUGGCUGUGGCUAGACUGCCUCUCUGGAUUCCUCGUCACUCAGCAGGGCAUCUCUGAGAGAAAUGCC [U20C A67U]	criterion not met
AACGUAGGUGGUUUUCCCCUGAUAGUGCCAAGGGGGCCUGGAAGUUUGGACUGGGCAGAGCUCAACACAGCGUGGCAAAGUGGCUGUGGCUAGACUGCCUCUCUGGAUUCCUCGUCACUCAGCAGGGCAUCUCUGAGAGAAAUGCC [U1A U29C]	criterion not met
UACGUAGGUGGUUUUCCCCUGAUAGCGCUAAGGGGGCCUGGAAGUUUGGACUGGGCAGAGCUCAACACAGCGUGGCAAAGUGGCUGUGGCUAGACUGCCUCUCUGGAUUCCUCGUCACUCAGCAGGGCAUCUCCGAGAGAAAUGCC [U26C U134C]	criterion not met
UACGUAGGUGGUUUUCCCCUGAUAGUGCUAAGGGGGGCUGGAAGUUUGGACUGGGCAGAGCUCAACACAGCGUGGCAAAGUGGCUGUGGCUAGACUGCCUCUCUGGAUUCCUCGUCACUCAGCAGGGCAUCCCUGAGAGAAAUGCC [C37G U132C]	criterion not met
UACGUAGGUGGUUUUCCCCUGAUAGUGCUAAGGGGGCCUGGAAGUUUGGACUGGGCAGAGCUCAACACAGCGUGGCAAAGUGGCUGUGGCUAGACUGCCUCUCUGGAUUCCUCGUCACUCGGCAGGGCAUCUCUGAGAGAGAUGCC [A121G A141G]	criterion met
UACGUAGGUGGUUUUCCCCUGAUAGUGCUAAGGGGGCCUGGAAGUUUGGACUGGGCAGAGCUCAACACAGCGUGGCAAAGUGGCUGUGGCCAGACUGCCUCUCUGGAUUCCUCGUCACCCAGCAGGGCAUCUCUGAGAGAAAUGCC [U91C U119C]	criterion met
UACGUAGGUGGUUUUCCCCUGAUAGUGCUAAGGGGGCCUGGAAGUUAGGACUGGGCAGAGCUCAACACAGCGUGGCAAAGUGGCUGUGGCUAGACUGCCUCUCUGGAUUCCUCGUCGCUCAGCAGGGCAUCUCUGAGAGAAAUGCC [U47A A117G]	criterion met
UACGUAGGUGGUUUUCCCCUGAUAGUGCUAAGGGGGCCUGGAAGUUUGGACUGGGCAGAGCCCAACACAGCGUGGCAAAGUGGCUGUGGCUAGACUGCCUCUCUGAAUUCCUCGUCACUCAGCAGGGCAUCUCUGAGAGAAAUGCC [U62C G106A]	criterion not met
UACGUAGGUGGUUUUCCCCUGAUAGUGCUAAGGGGGCCUGGAAGGCUGGACUGGGCAGAGCUCAACACAGCGUGGCAAAGUGGCUGUGGCUAGACUGCCUCUCUGGAUUCCUCGUCACUCAGCAGGGCAUCUCUGAGAGAAAUGCC [U45G U46C]	criterion met
UACGUAGGUGGUUUUCCCCUGAUAGUGCUAAGGGGGCCUGGAAGUUUGGACUGGGCAGAGCUCAACACAGCGUGGCAAAGUGGCUGUGGCUAGACUGCCUCUCUGAAUUCCUCGUCACUCAGCAGGGCAUCUCUGAGAGAAACGCC [G106A U143C]	criterion met
UACGUAGGUGGUUUUCCCCUGAUAGUGCUAAGGGGGCCUGGAAGUUUGGACAGGGCAGAGCUCAACACAGCGUGGCAAAGUGGCUGUGGCUAGAAUGCCUCUCUGGAUUCCUCGUCACUCAGCAGGGCAUCUCUGAGAGAAAUGCC [U52A C95A]	criterion not met
UACGUUGGUGGUUUUCCCCUGAUAGAGCUAAGGGGGCCUGGAAGUUUGGACUGGGCAGAGCUCAACACAGCGUGGCAAAGUGGCUGUGGCUAGACUGCCUCUCUGGAUUCCUCGUCACUCAGCAGGGCAUCUCUGAGAGAAAUGCC [A6U U26A]	criterion not met
UACGUAGGUGGUUUUCCCCUGAUAGUGCUAAGGGGGCCUGGAAGUUUGGUCUGGGCAGAGCUCAACACAGCGUGGCAAAGUGGCUGUGGCUAGACUGCCUCUCUGGAUUCCUCGUCACUCAGCGGGGCAUCUCUGAGAGAAAUGCC [A50U A124G]	criterion not met
UACGUAGGUGGUUUUCCCCUGAUAGUGCUAAGGGGGCCUGGAAGGUUGGACUGGGCAGAGCUCAACACAGCGUGGCUAAGUGGCUGUGGCUAGACUGCCUCUCUGGAUUCCUCGUCACUCAGCAGGGCAUCUCUGAGAGAAAUGCC [U45G A77U]	criterion met
UACGUAGGUGGUUUUCCCCUGAUAGUGCUAAGGGGGCCUGGAAGUUUGGACUGGGCAGAACUCAACACAGCGUGGCAAAGUGGCUGUGGCUAGACUGCCUCUCUGGAUUCCUCGUCACUCAGCGGGGCAUCUCUGAGAGAAAUGCC [G60A A124G]	criterion not met
UACGUAGGUGGUUUUCCCCUGAUAGUGCUAAGGGGGCCUGGAAGUUGGGACUGGGCAGAGCUCAACACAGCGUGGCGAAGUGGCUGUGGCUAGACUGCCUCUCUGGAUUCCUCGUCACUCAGCAGGGCAUCUCUGAGAGAAAUGCC [U47G A77G]	criterion met
UACGUAGGUGGUUUUCCCCUGAUAGUGCUAAGGGGGCCUGGAAGUUUGGACUGGGCAGAGCUCAACACAGCGGGGCAAAGUGGCUGUGGCUAGACUGCCUCUCUGGAUUCCUCGUCACUCAGCAGGGCAUCUCUGAGAGAAACGCC [U73G U143C]	criterion met
UACGUAGGUGGUUUUCCCCUGAUAGUGCUAGGGGCGCCUGGAAGUUUGGACUGGGCAGAGCUCAACACAGCGUGGCAAAGUGGCUGUGGCUAGACUGCCUCUCUGGAUUCCUCGUCACUCAGCAGGGCAUCUCUGAGAGAAAUGCC [A31G G35C]	criterion met
UACGUAGGUGGUUUUCCCCUGAUAGUGCUAAGGGGGCCUGGAAGUUUGGACUGCGCAGAGCUCAACACAGCGUGGCAAAGAGGCUGUGGCUAGACUGCCUCUCUGGAUUCCUCGUCACUCAGCAGGGCAUCUCUGAGAGAAAUGCC [G54C U81A]	criterion not met
AACGUAGGUGGUUUCCCCCUGAUAGUGCUAAGGGGGCCUGGAAGUUUGGACUGGGCAGAGCUCAACACAGCGUGGCAAAGUGGCUGUGGCUAGACUGCCUCUCUGGAUUCCUCGUCACUCAGCAGGGCAUCUCUGAGAGAAAUGCC [U1A U15C]	criterion met
UACGUAGGUGGUUUUCCCCUGAUAGUGCAAAGGGGGCCUGGAAGUUUGGACUGGGCAGAGCUCAACACAGCGUGGCAAAGUGGCUGUGGCUAGACUGCCUCUCUGGAUUCCUCGUCACUCAGCAGGGCAUCUCUGAGAGAGAUGCC [U29A A141G]	criterion met
UACGUAGGUGGUUUUCCCCUGAUAGUGCUAAGGGGGCCUGGAAGUUUGGACUGGGCAGGGCUCAACACAGCGUGGCAAAGUGGCUGUGGCUAGACUGCCUCUCUGGAUUCCUCGUCACUCAGCAGGGCAUCUCCGAGAGAAAUGCC [A59G U134C]	criterion not met
UACGUAGGUGGUUUUCCCCUGAAAGUGCUAGGGGGGCCUGGAAGUUUGGACUGGGCAGAGCUCAACACAGCGUGGCAAAGUGGCUGUGGCUAGACUGCCUCUCUGGAUUCCUCGUCACUCAGCAGGGCAUCUCUGAGAGAAAUGCC [U23A A31G]	criterion not met
UACAUAGGUGGUUUUCCCCUGAUAGUGCUAAGGGGGCCUGGAAGUUUGGACUGGGCAGAGCUCAACACAGCGUGGCAAAGCGGCUGUGGCUAGACUGCCUCUCUGGAUUCCUCGUCACUCAGCAGGGCAUCUCUGAGAGAAAUGCC [G4A U81C]	criterion met
UACGAAGGUGGUUUUCCCCUGAUAGUGCUAAGGGGGCCUGGAAGUUUGGACUGGGCAGAGCUCAACACAGCGUGGCAAAGUGGCUGUGGCUAGACUGCCUCUCUGGAUUUCUCGUCACUCAGCAGGGCAUCUCUGAGAGAAAUGCC [U5A C110U]	criterion not met
UACGUAGGUGGUUUUCCCCUGAUAGUGCUAAGGGGGCCUGGAAGUUUGGACUGGGCAGAGCUCAACACAGCGUGGCAGAGUGGCUGUGGCUAGACUGCCUCUCUGGAUUCCUCGUCACUCAGCAGGGCAUCUCUGAGAGAAAAGCC [A78G U143A]	criterion met
UACGUAGGUGGUUCUCCCCUGAAAGUGCUAAGGGGGCCUGGAAGUUUGGACUGGGCAGAGCUCAACACAGCGUGGCAAAGUGGCUGUGGCUAGACUGCCUCUCUGGAUUCCUCGUCACUCAGCAGGGCAUCUCUGAGAGAAAUGCC [U14C U23A]	criterion met
UACGUAGGUGGUUUUCCCCUGAUAGUGCUGAGGGGGCCUGGAAGUUUGGACUGGGCAGAGCUCAACACAGCGUGGCAAAGUGGCUGUGGCUAGACUGCCUCUCUGGAUUCCUCGUCACUUAGCAGGGCAUCUCUGAGAGAAAUGCC [A30G C120U]	criterion met
UACGUAGGUGGUUUUCCCCUGAUAGUGCUUAGGGGGCCUGGAAGUUUGGACUGGGCAGAGCUCAACACAGCGUGGCAAAGUGGCUGUGGCUAGACUGCCUCUCUGGAUUCCUCGUCACUCAGCAGGGCAUCUCUGGGAGAAAUGCC [A30U A136G]	criterion met
